Assay: basal MM1S mitochondrial membrane potential changes, profiling panel, cell-based, JC-1 fluorescence, 24 h, 100 nL compound (AID 1170); note: test concentration not given here
Conditions: higher = more signal
measurement kind: z-score

CC(=O)N1Cc2ccccc2C[C@@]2(COC(c3ccc(OCCCO)cc3)=N2)C1=O; -0.394
O=C1OCC=C[C@H]2OC34C=CCN(c5ccc6ccccc6c5)C(=O)[C@H]3N(CCCCCCO)C(=O)[C@@H]4[C@@H]12 (stereo partly drawn); 0.469
C=C(CCCC)/C(=C/C[C@@H](OC(C)=O)c1ccccc1OCCO)c1cnc2ccccc2c1; 0.61
[N-]=[N+]=NCc1ccccc1C[C@]1(C(=O)NCC(O)CO)N=C(c2ccc(OCCCO)cc2)O[C@H]1c1ccccc1 (stereo partly drawn); -0.727
C=CCNC(=O)[C@H]1[C@@H]2C(=O)O[C@@H](c3ccccc3)[C@@H](c3ccccc3)N2[C@@H](c2ccccc2OCCO)[C@]12C(=O)Nc1ccc(C#CC3=CCCCC3)cc12; -1.84

# input Request the reported z-score associated with `O=C1c2ccccc2[C@@]2(Cc3ccccc3N(CC(F)(F)F)C2=O)[C@H](c2ccc(CO)cc2)N1Cc1ccccc1Cl`
# output 0.165

# input // same read-out, input: `COC(=O)C(CC#Cc1ccc2c(c1)[C@]1(C(=O)N2)[C@H](c2ccc(O)cc2)N2[C@H](c3ccccc3)[C@H](c3ccccc3)OC(=O)[C@H]2[C@@H]1C(=O)Nc1nc2ccccc2s1)C(=O)OC`
# output 0.422

# input // same read-out, input: `C=C(CCCC)C(=O)CC[C@H](OC(C)=O)c1cccc(OCCO)c1`
# output -0.964

---

Tested on: Human papillomavirus type 1a E7 protein (residues 1-88)
Assay: HPV1a E7 small-molecule binders, primary screen, biochemical, small-molecule microarray, residues 1-88, 635 nm (AID 1129)
Conditions: small-molecule microarray binding, fluorescence 635 nm; higher = more signal
measurement kind: composite z-score
# output: bare number, no unit

COc1ccc(C(O)C2C=CC3C(=O)NC(=O)C3N2Nc2ccccn2)cc1 (configuration not stated); 0.178
COCCOC(=O)N1C(=O)[C@@]2(c3cc(C#CCCO)ccc31)[C@H](C(=O)Nc1nc3ccccc3s1)[C@H]1C(=O)O[C@H](c3ccccc3)[C@H](c3ccccc3)N1[C@@H]2c1ccc(OCCO)cc1; 0.957
O=C(c1ccccc1)N1Cc2ccccc2[C@@H]2OC(c3ccc(OCCCO)cc3)=N[C@]2(Cc2ccccc2)C1=O; 1.19
C[N+](C)(C)CCCC[C@@H]1NC(=O)[C@@H]2C[C@H](C(=O)NCCCCCN)[C@H](c3cccc(OCCO)c3)N2C1=O; 0.935
O=C1O[C@H](c2ccccc2)[C@H](c2ccccc2)N2[C@H]1[C@@H](C(=O)Nc1nc3ccccc3s1)[C@]1(C(=O)Nc3ccc(C#CCCO)cc31)[C@H]2c1ccc(OCCO)cc1; 1.18

Could you now consider this next compound?
# input Request the reported composite z-score associated with `CN(C)CCCNC(=O)[C@@]1(C)c2ccccc2C(=O)N(Cc2cc(F)cc(C(F)(F)F)c2)[C@H]1c1ccc(CO)cc1`
# output -0.358

---

Target: Follistatin (Homo sapiens) (UniProt P19883)
Sequence (P19883 whole entry, looked up): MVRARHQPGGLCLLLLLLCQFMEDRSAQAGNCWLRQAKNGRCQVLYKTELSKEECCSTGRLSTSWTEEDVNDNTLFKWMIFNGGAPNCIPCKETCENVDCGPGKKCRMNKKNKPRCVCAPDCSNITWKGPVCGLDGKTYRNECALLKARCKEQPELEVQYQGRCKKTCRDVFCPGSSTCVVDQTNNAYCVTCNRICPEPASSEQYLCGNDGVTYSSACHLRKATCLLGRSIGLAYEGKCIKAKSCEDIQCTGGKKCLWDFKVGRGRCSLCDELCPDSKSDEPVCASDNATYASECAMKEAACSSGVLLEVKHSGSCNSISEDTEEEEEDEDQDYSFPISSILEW
Assay: follistatin binders on small-molecule microarrays, primary screen, biochemical, small-molecule microarray, 635/667 nm fluorescence (AID 1132)
Details: FST binding, 635 nm fluorescence, higher = more signal
Here the recorded composite z-score is given for each entry.
# output: bare number, no unit

[N-]=[N+]=Nc1ccccc1C[C@]1(C(=O)NCC(O)CO)N=C(c2ccc(OCCCO)cc2)O[C@H]1c1ccccc1N=[N+]=[N-] (some centres undefined); -0.332
COc1cc2c(cc1O)C=[N+](Cc1cccc(OC(F)(F)F)c1)CC2; 0.318

Could you now consider this next compound?
# input Value wanted: composite z-score (Follistatin (Homo sapiens) (UniProt P19883)) of entry `COCCOC(=O)N1C(=O)[C@@]2(c3cc(C#CCCO)ccc31)[C@H](C(=O)N1CCN(c3ncccn3)CC1)[C@H]1C(=O)O[C@H](c3ccccc3)[C@H](c3ccccc3)N1[C@@H]2c1ccccc1OCCO`
# output 1.35

Hey, just so you know, these numbers are from PubChem BioAssay.
